Target: MAGI2_5, Q86UL8
Sequence (Q86UL8 915-1017): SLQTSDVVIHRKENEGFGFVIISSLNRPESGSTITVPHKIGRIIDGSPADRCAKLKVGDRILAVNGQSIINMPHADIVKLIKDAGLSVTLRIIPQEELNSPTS
Experiment: holdup assay
Design: key: below the threshold = too weak to quantify, mostly under pKd 3.1 to 4
Conditions: plain residues with an end cap or a label only (N-terminal biotin on a linker: ado-ado)
Assay Endpoint: pKd
Lab note: record the figure alone, no unit after it.

Answered cases to consult:
[[record]]
binder = "RRRESYSTTV [EVI5, O60447]"
assay_endpoint = "pKd"
obs_value = 4.54

[[record]]
binder = "AKPSRISTVV [IQSEC2, Q5JU85]"
assay_endpoint = "pKd"
obs_value = 4.44

[[record]]
binder = "QGPVETESVV [SLC45A4, Q5BKX6]"
assay_endpoint = "pKd"
obs_value = 4.55


input: Endpoint output: pKd of YRLAQESGLV [ABCC6, O95255] . Value?
output: 3.61

Values compiled from paper PMC9482650.
